System: P12-Ichikawa
Assay: cell viability relative to DMSO control; higher = less cytotoxic
Conditions: HPLM + 10% dialyzed FBS; 48 h; 5.12 µM
measure: cell viability
Phrase the answer as number then unit, nothing more needed.

Input line: Could you share which cell viability value was measured for Clc1ccc(COC(Cn2ccnc2)c2ccc(Cl)cc2Cl)cc1 (stereo not given) ?
Output line: 114%

Input line: Could you share which cell viability value was measured for `CN(C)CCC=C1C2=C(C=CC=C2)\C=C/C3=C1C=CC=C3` ?
Output line: 96.9%

Input line: Could you share which cell viability value was measured for `N/C(=N\C(=O)c1nc(Cl)c(N)nc1N)NCc1ccccc1` ?
Output line: 101%

Input line: Could you share which cell viability value was measured for `CCOC(=O)c1ccc(C#Cc2ccc3c(c2)C(C)(C)CCS3)nc1` ?
Output line: 108%

Input line: Could you share which cell viability value was measured for `CCCn1c(=O)c2[nH]c(C34CC5CC3C[C@@H](C5)C4)nc2n(CCC)c1=O` ?
Output line: 93.6%

* * *

Test system: NOMO1
Assay: AUC of viability dose-response curve (% viability x log10 dose units); higher = less sensitive
Conditions: RPMI 5 mM glucose + 10% dialyzed FBS; 48 h
measure: AUC of viability dose-response curve
Form rule: numeric answer, no unit written next to it.

Input line: Could you share which AUC of viability dose-response curve value was measured for `COC1=CC=C2C(=CC=NC2=C1)OC3=CC=C(NC(=O)\C4=C(C)\N(CC(C)(C)O)N(C4=O)C5=CC=CC=C5)C=C3F` ?
Output line: 467

Input line: Could you share which AUC of viability dose-response curve value was measured for `CCCn1c(=O)c2[nH]c(-c3cnn(Cc4cccc(C(F)(F)F)c4)c3)nc2n(CC)c1=O` ?
Output line: 413

Input line: Could you share which AUC of viability dose-response curve value was measured for `CC(C)[C@H](CO)Nc1nc(Nc2ccc(C(=O)O)c(Cl)c2)c2ncn(C(C)C)c2n1` ?
Output line: 462

Input line: Could you share which AUC of viability dose-response curve value was measured for CCOP(=O)(OCC)C(C)NC(=O)N(CCCl)N=O (stereo unspecified) ?
Output line: 466

Input line: Could you share which AUC of viability dose-response curve value was measured for `CNC(=O)c1cc(Oc2ccc(NC(=O)Nc3cc(C(C)(C)C)nn3-c3ccc4ncccc4c3)c(F)c2)ccn1` ?
Output line: 450

Input line: Could you share which AUC of viability dose-response curve value was measured for `CCCCCCCCCCCCCCCC(=O)OC[C@@H](NC(=O)C(Cl)Cl)[C@H](O)c1ccc([N+](=O)[O-])cc1` ?
Output line: 445

* * *

System: NOMO1
Test: cell viability relative to DMSO control; higher = less cytotoxic
Settings: RPMI 5 mM glucose + 10% FBS; 48 h; 0.569 µM
measure: cell viability (%)
Give the value in % but do not write % after it.

Input line: Could you share which cell viability value was measured for `Cn1cc(-c2ccc3ncc(Cc4ccc5ncccc5c4)n3n2)cn1` ?
Output line: 118

Input line: Could you share which cell viability value was measured for `NC12CC3CC(CC(C3)C1)C2` ?
Output line: 98.2

Input line: Could you share which cell viability value was measured for `CC1(C)O[C@H]2CC(=O)OC[C@]23[C@H]2CC[C@@]4(C)[C@H](c5ccoc5)OC(=O)[C@H]5O[C@]54[C@]2(C)C(=O)C[C@@H]13` ?
Output line: 98.9

Input line: Could you share which cell viability value was measured for `CC(C)c1ccc2oc3nc(N)c(C(=O)O)cc3c(=O)c2c1` ?
Output line: 123

* * *

System: SEM cells
Assay: cell viability relative to DMSO control; higher = less cytotoxic
Settings: RPMI 5 mM glucose + 10% FBS; 48 h; 0.0211 µM
Could you please report measured cell viability for the items listed next?

Input line: Could you share which cell viability value was measured for `c1ccc(-c2nn3c(c2-c2ccnc4cc(OCCN5CCOCC5)ccc24)CCC3)nc1` ?
Output line: 125%

Input line: Could you share which cell viability value was measured for `COc1cc(/C=C/C(=O)CC(=O)/C=C/c2ccc(O)c(OC)c2)ccc1O` ?
Output line: 128%

Input line: Could you share which cell viability value was measured for `c1cc(OCCN2CCCCC2)cc(-c2n[nH]c3ccc(-c4nc[nH]n4)cc23)c1` ?
Output line: 97.8%

Input line: Could you share which cell viability value was measured for `Nc1cccc(-c2cc3c(Oc4cccc(O)c4)ncnc3[nH]2)c1` ?
Output line: 143%

Input line: Could you share which cell viability value was measured for `O=C(NC1CC1)c1cccc(-c2ccc3c(NC(=O)C4CC4)n[nH]c3c2)c1` ?
Output line: 107%

Input line: Could you share which cell viability value was measured for `CC(C)[C@@H](N(CCCN)C(=O)C1=CC=C(C)C=C1)C/2=C(\CC3=CC=CC=C3)C(=O)C4=C(O2)C=C(Cl)C=C4` ?
Output line: 22.5%

Input line: Could you share which cell viability value was measured for `CCCCc1oc2ccc(NS(C)(=O)=O)cc2c1C(=O)c1ccc(OCCCN(CCCC)CCCC)cc1` ?
Output line: 109%

Input line: Could you share which cell viability value was measured for `CCCn1c(=O)c2[nH]c(-c3cnn(Cc4cccc(C(F)(F)F)c4)c3)nc2n(CC)c1=O` ?
Output line: 109%

Input line: Could you share which cell viability value was measured for `NC/1=N/C(=O)N(/C=C1)[C@H]2CC[C@@H](CO)O2` ?
Output line: 92%

Input line: Could you share which cell viability value was measured for `CC(C)(O)CNc1nc(Nc2ccnc(C(F)(F)F)c2)nc(-c2cccc(C(F)(F)F)n2)n1` ?
Output line: 107%

Input line: Could you share which cell viability value was measured for `COC1=CC=C(C=C1)C/2=C/OC3=CC(=CC=C3C2=O)O` ?
Output line: 109%

Input line: Could you share which cell viability value was measured for `CN(C)C(=O)COC(=O)Cc1ccc(OC(=O)c2ccc(NC(=N)N)cc2)cc1` ?
Output line: 117%

Input line: Could you share which cell viability value was measured for CC1(C)CC(=O)c2c(C(F)(F)F)nn(-c3ccc(C(N)=O)c(NC4CCC(OC(=O)CN)CC4)c3)c2C1 (configuration not stated) ?
Output line: 120%

Input line: Could you share which cell viability value was measured for `CC(Oc1ccc(O)cc1)(P(=O)(O)O)P(=O)(O)O` ?
Output line: 116%

Input line: Could you share which cell viability value was measured for `CCC(=O)O[C@@]1([C@H](C)C[C@H]2[C@@H]3C[C@H](F)\C4=C\C(=O)\C=C/[C@]4(C)[C@@]3(F)[C@@H](O)C[C@]12C)C(=O)SCF` ?
Output line: 67.8%

Input line: Could you share which cell viability value was measured for `CC(C)(Cc1ccc2ccccc2c1)NC[C@@H](O)COc1cccc(Cl)c1C#N` ?
Output line: 116%

Input line: Could you share which cell viability value was measured for `Nc1ccc([S+](=O)([O-])Nc2ccccn2)cc1` ?
Output line: 118%

Input line: Could you share which cell viability value was measured for `CC1(C)O[C@H]2CC(=O)OC[C@]23[C@H]2CC[C@@]4(C)[C@H](c5ccoc5)OC(=O)[C@H]5O[C@]54[C@]2(C)C(=O)C[C@@H]13` ?
Output line: 88.8%

Input line: Could you share which cell viability value was measured for O=P(O)(O)C(O)(Cc1cccnc1)P(=O)(O)[O][Na] (configuration not stated) ?
Output line: 14.2%

Input line: Could you share which cell viability value was measured for Cc1c(OCC(F)(F)F)ccnc1C[S+]([O-])c1nc2ccccc2[nH]1 (configuration not stated) ?
Output line: 107%

Input line: Could you share which cell viability value was measured for `Cc1cc(SCc2sc(-c3ccc(C(F)(F)F)c(F)c3)nc2C)ccc1OCC(=O)O` ?
Output line: 43.2%

Input line: Could you share which cell viability value was measured for C[C@H]1CCC/C=C/C2C[C@H](O)C[C@H]2[C@H](O)/C=C/C(=O)O1 (some centres not stated) ?
Output line: 9.33%

Input line: Could you share which cell viability value was measured for `Cn1cc(-c2ccncc2)c(-c2ccc(OCc3ccc4ccccc4n3)cc2)n1` ?
Output line: 118%

Input line: Could you share which cell viability value was measured for `COC1=CC=C2C(=CC=NC2=C1)OC3=CC=C(NC(=O)\C4=C(C)\N(CC(C)(C)O)N(C4=O)C5=CC=CC=C5)C=C3F` ?
Output line: 115%

Input line: Could you share which cell viability value was measured for `C=C1C[C@@]2(O)O[C@@]3(C[C@H]2C(C)C)[C@@H](C)CC[C@@H]13` ?
Output line: 125%

Input line: Could you share which cell viability value was measured for `CN(C)c1ccc(C(=O)NCCCCCCC(=O)NO)cc1` ?
Output line: 92%

Input line: Could you share which cell viability value was measured for `NC12CC3CC(CC(C3)C1)C2` ?
Output line: 104%

* * *

Could you please report measured cell viability for the items listed next?
System: NOMO1
Test: cell viability relative to DMSO control; higher = less cytotoxic
Conditions: RPMI 5 mM glucose + 10% FBS; 48 h; 0.569 µM
Give the value in % but do not write % after it.

Input line: Could you share which cell viability value was measured for `c1ccc2c(-c3cnn4cc(-c5ccc(N6CCNCC6)cc5)cnc34)ccnc2c1` ?
Output line: 128

Input line: Could you share which cell viability value was measured for `COc1ccc(-c2c(-c3ccc(O)cc3O)n[nH]c2C)cc1` ?
Output line: 105

Input line: Could you share which cell viability value was measured for `CC1=C(/C=C/C(C)=C/C=C/C(C)=C/C(=O)Nc2ccc(O)cc2)C(C)(C)CCC1` ?
Output line: 95

Input line: Could you share which cell viability value was measured for CC1(C)CC(=O)c2c(C(F)(F)F)nn(-c3ccc(C(N)=O)c(NC4CCC(OC(=O)CN)CC4)c3)c2C1 (stereo not drawn) ?
Output line: 20.6

Input line: Could you share which cell viability value was measured for `CC(C)[C@H](CO)Nc1nc(Nc2ccc(C(=O)O)c(Cl)c2)c2ncn(C(C)C)c2n1` ?
Output line: 131

Input line: Could you share which cell viability value was measured for `Cc1cnc(Nc2ccc(OCCN3CCCC3)cc2)nc1Nc1cccc([S+](=O)([O-])NC(C)(C)C)c1` ?
Output line: 98

Input line: Could you share which cell viability value was measured for CC1OC(OC/2=C(/OC3=C(C(=CC(=C3)O)O)C2=O)C4=CC=C(O)C=C4)C(O)C(OC(C)=O)C1OC(C)=O (stereo not drawn) ?
Output line: 96.8

Input line: Could you share which cell viability value was measured for `COc1cc2ncnc(Nc3ccc(F)c(Cl)c3)c2cc1OCCCN1CCOCC1` ?
Output line: 104
